Target: T1, Ep-CAM (UniProt P16422 24-265, limits assumed)
T1 construct: Antigen of the Biacore analysis of ING-1 variants
T1 sequence (looked up): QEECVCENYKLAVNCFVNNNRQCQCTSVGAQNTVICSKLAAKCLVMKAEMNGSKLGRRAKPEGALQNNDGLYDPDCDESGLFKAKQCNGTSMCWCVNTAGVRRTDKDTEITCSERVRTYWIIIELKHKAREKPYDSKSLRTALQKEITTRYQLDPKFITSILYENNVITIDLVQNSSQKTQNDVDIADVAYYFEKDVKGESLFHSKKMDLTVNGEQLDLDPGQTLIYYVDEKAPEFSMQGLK
Assay: Biacore, Fab periplasmic extract

- binder: "ING-1 heavy chain W50R (Fab, V domains shown) VH: QIQLVQSGPELKKPGETVKISCKASGYTFTKYGMNWVKQAPGKGLKWMGRINTYTEEPTYGDDFKGRFAFSLETSASTANLQINNLKSEDTATYFCARFGSAVDYWGQGTSVTVSS VL: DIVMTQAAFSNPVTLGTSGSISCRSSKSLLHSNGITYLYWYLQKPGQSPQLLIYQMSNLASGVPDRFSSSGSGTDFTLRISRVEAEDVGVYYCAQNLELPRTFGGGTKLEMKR"
  fold difference in affinity vs original [fold]: 0.1
- binder: "ING-1 heavy chain T30Y (Fab, V domains shown) VH: QIQLVQSGPELKKPGETVKISCKASGYTFYKYGMNWVKQAPGKGLKWMGWINTYTEEPTYGDDFKGRFAFSLETSASTANLQINNLKSEDTATYFCARFGSAVDYWGQGTSVTVSS VL: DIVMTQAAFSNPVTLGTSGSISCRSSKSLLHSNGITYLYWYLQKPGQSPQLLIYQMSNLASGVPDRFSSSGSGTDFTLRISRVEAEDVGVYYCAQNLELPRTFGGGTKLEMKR"
  fold difference in affinity vs original [fold]: 2
- binder: "ING-1 heavy chain W50S (Fab, V domains shown) VH: QIQLVQSGPELKKPGETVKISCKASGYTFTKYGMNWVKQAPGKGLKWMGSINTYTEEPTYGDDFKGRFAFSLETSASTANLQINNLKSEDTATYFCARFGSAVDYWGQGTSVTVSS VL: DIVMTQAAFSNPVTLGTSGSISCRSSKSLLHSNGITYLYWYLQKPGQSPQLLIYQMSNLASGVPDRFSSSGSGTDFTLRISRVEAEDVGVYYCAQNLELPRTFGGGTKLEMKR"
  fold difference in affinity vs original [fold]: 0.02
- binder: "ING-1 heavy chain T55Q (Fab, V domains shown) VH: QIQLVQSGPELKKPGETVKISCKASGYTFTKYGMNWVKQAPGKGLKWMGWINTYQEEPTYGDDFKGRFAFSLETSASTANLQINNLKSEDTATYFCARFGSAVDYWGQGTSVTVSS VL: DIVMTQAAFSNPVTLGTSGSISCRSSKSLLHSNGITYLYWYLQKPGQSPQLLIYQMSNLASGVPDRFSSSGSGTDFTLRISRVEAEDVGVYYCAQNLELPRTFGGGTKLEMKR"
  fold difference in affinity vs original [fold]: 0.03
- binder: "ING-1 heavy chain T55F (Fab, V domains shown) VH: QIQLVQSGPELKKPGETVKISCKASGYTFTKYGMNWVKQAPGKGLKWMGWINTYFEEPTYGDDFKGRFAFSLETSASTANLQINNLKSEDTATYFCARFGSAVDYWGQGTSVTVSS VL: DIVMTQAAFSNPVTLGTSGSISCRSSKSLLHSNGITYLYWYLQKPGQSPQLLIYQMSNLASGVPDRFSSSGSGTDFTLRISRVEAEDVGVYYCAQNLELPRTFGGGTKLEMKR"
  fold difference in affinity vs original [fold]: 0.03
- binder: "ING-1 heavy chain Y32S (Fab, V domains shown) VH: QIQLVQSGPELKKPGETVKISCKASGYTFTKSGMNWVKQAPGKGLKWMGWINTYTEEPTYGDDFKGRFAFSLETSASTANLQINNLKSEDTATYFCARFGSAVDYWGQGTSVTVSS VL: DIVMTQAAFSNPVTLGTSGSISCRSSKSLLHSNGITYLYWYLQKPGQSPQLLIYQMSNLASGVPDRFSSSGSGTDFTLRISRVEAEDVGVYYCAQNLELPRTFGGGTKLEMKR"
  fold difference in affinity vs original [fold]: 0.01
- binder: "ING-1 heavy chain N52H (Fab, V domains shown) VH: QIQLVQSGPELKKPGETVKISCKASGYTFTKYGMNWVKQAPGKGLKWMGWIHTYTEEPTYGDDFKGRFAFSLETSASTANLQINNLKSEDTATYFCARFGSAVDYWGQGTSVTVSS VL: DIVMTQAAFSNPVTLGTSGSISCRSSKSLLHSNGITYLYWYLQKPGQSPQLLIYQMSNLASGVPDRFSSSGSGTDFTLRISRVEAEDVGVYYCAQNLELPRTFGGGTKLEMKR"
  fold difference in affinity vs original [fold]: 0.02
- binder: "ING-1 heavy chain T55W (Fab, V domains shown) VH: QIQLVQSGPELKKPGETVKISCKASGYTFTKYGMNWVKQAPGKGLKWMGWINTYWEEPTYGDDFKGRFAFSLETSASTANLQINNLKSEDTATYFCARFGSAVDYWGQGTSVTVSS VL: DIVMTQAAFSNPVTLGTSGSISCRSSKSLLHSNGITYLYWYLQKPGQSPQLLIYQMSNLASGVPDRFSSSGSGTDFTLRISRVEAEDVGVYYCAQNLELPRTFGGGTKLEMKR"
  fold difference in affinity vs original [fold]: 0.1
- binder: "ING-1 heavy chain T55D (Fab, V domains shown) VH: QIQLVQSGPELKKPGETVKISCKASGYTFTKYGMNWVKQAPGKGLKWMGWINTYDEEPTYGDDFKGRFAFSLETSASTANLQINNLKSEDTATYFCARFGSAVDYWGQGTSVTVSS VL: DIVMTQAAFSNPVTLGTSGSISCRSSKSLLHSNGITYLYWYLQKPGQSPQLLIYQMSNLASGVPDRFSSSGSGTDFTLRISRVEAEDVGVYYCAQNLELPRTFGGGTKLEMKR"
  fold difference in affinity vs original [fold]: 0.03
- binder: "ING-1 heavy chain N52D (Fab, V domains shown) VH: QIQLVQSGPELKKPGETVKISCKASGYTFTKYGMNWVKQAPGKGLKWMGWIDTYTEEPTYGDDFKGRFAFSLETSASTANLQINNLKSEDTATYFCARFGSAVDYWGQGTSVTVSS VL: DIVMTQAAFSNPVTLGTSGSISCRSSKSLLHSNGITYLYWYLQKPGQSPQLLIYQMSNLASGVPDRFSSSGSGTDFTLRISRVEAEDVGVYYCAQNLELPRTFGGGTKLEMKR"
  fold difference in affinity vs original [fold]: 0.02
